Give amount of TNF-α produced in THP-1 cells, Average for every item shown.
tested on: TNF-α production in THP-1 cells; assay: Inhibition of tumor necrosis factor-alpha production in THP-1 cell line (ELISA); type: cell-based, human; conditions: 10 μM compound; PMA 25 ng/ml 24 h, then LPS, 24 h; No Drug control 5250
State just the number; it will be interpreted in pg/mL.

q: I am curious: what amount of TNF-α produced in THP-1 cells, Average value has been reported for N=C(NC(=N)N1CCCC1)Nc1ccc(Cl)c(Cl)c1 [HL-156E] ?
a: 1925

q: Now try COc1cc(NC(=N)NC(=N)N2CCCCC2)cc(OC)c1 [HL-156F] .
a: 4650

q: Now try N=C(NC(=N)N1CCCCC1)Nc1ccc(-c2nnn[nH]2)cc1 [HL-156D] .
a: 5150

q: Now try N=C(NC(=N)N1CCCCC1)Nc1ccc(F)cc1 [HL-156C] .
a: 6375

q: Now try N=C(NC(=N)N1CCCC1)Nc1ccc(OC(F)(F)F)cc1 [HL-156A] .
a: 3025

q: Now try N=C(NC(=N)N1CCCC1)Nc1ccc(C(F)(F)F)cc1 [HL-156B] .
a: 2875
